Origin of measurements: patent US5807854A

test system: C. albicans; assay: In vitro activity by the agar dilution method, C. albicans; type: cell-based; settings: Candida albicans; Kimmig's agar, 25° C., 48 h; read-out: MIC (minimal inhibitory concentration), C. albicans
measure_name: MIC

INSERT INTO results (item_smiles, measured_value) VALUES
  ('C[C@@H](n1cnc2cc(NCc3ccccc3)ccc2c1=O)[C@](O)(Cn1cncn1)c1ccc(F)cc1F', '≤ 0.03 µg/mL'),
  ('C[C@@H](n1cnc2cc(OCC(F)(F)C(F)F)ccc2c1=O)[C@](O)(Cn1cncn1)c1ccc(F)cc1F', '≤ 0.03 µg/mL'),
  ('C[C@@H](n1cnc2ccccc2c1=O)[C@](O)(Cn1cncn1)c1ccc(F)cc1F', '0.07 µg/mL');

As a next step, examine the molecule that follows.
// MIC lookup, key: C[C@@H](n1cnc2cc(Cl)ccc2c1=O)[C@](O)(Cn1cncn1)c1ccc(F)cc1F
≤ 0.03 µg/mL
